Below, each entry is listed alongside its reported IC50.
# TEST_TARGET: Epidermal growth factor receptor (Homo sapiens)
# Sequence (P00533 whole entry): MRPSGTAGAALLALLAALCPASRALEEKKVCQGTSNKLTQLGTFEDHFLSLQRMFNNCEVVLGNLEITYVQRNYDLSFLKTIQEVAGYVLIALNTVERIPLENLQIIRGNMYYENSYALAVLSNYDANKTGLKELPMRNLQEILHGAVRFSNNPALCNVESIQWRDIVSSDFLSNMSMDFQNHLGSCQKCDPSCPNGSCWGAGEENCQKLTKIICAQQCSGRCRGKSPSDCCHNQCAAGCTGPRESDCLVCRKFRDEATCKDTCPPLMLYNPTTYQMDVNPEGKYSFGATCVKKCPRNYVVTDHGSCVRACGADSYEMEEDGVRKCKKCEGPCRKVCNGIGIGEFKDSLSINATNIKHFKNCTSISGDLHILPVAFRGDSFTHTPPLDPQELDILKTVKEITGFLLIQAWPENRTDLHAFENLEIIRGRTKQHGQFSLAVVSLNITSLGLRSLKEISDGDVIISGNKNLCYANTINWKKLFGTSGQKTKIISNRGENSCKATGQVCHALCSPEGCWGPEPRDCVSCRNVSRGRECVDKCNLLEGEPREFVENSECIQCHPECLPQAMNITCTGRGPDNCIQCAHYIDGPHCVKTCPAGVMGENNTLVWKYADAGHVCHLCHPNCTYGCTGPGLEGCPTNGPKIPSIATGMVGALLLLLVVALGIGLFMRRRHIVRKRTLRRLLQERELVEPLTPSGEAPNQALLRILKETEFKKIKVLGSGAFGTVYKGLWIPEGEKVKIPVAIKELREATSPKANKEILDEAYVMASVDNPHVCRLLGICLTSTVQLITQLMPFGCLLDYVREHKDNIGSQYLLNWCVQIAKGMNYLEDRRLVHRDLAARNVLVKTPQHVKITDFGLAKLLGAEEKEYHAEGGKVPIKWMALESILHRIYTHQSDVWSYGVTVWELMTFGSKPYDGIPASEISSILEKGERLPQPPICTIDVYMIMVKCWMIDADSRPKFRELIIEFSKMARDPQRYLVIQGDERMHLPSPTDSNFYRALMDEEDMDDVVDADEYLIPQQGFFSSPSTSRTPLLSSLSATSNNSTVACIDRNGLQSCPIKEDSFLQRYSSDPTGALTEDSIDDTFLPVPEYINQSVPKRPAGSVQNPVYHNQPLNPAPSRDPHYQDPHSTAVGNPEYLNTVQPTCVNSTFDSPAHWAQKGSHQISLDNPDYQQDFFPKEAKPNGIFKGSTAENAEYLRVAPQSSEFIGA
# EXPERIMENT_DESCRIPTION: Concentration required for inhibition of epidermal growth factor receptor (EGF-R) by tyrosine kinase enzyme activity
// units = nM; emit number, no label

Examples with answers:
COc1cccc(-c2cn(C3CCN(C(=O)OC(C)(C)C)C3)c3ncnc(N)c23)c1 (configuration not stated) :: 2100
COC(=O)CN1CCC(n2cc(-c3cccc(O)c3)c3c(N)ncnc32)C1 (configuration not stated) :: 740

Ask: Please look up its IC50: Nc1ncnc2c1c(-c1ccc(O)cc1)cn2C1CCNC1 (configuration not stated)
Result: 2670

Ask: Now consider "COc1cccc(-c2cn(C3CCN(CC(N)=O)CC3)c3ncnc(N)c23)c1" and answer again.
Result: 350

Ask: Now consider CC(C)(C)OC(=O)N1CCC(n2cc(-c3cccc(O)c3)c3c(N)ncnc32)C1 (configuration not stated) and answer again.
Result: 2200

Ask: Now consider CC(C)(C)OC(=O)N1CCC(n2cc(-c3ccccc3)c3c(N)ncnc32)C1 (configuration not stated) and answer again.
Result: 8300

Ask: Now consider "NC(=O)CN1CCC(n2cc(-c3cccc(O)c3)c3c(N)ncnc32)CC1" and answer again.
Result: 170

Ask: Now consider Nc1ncnc2c1c(-c1cccc(O)c1)cn2C1CCNC1 (configuration not stated) and answer again.
Result: 1530

Ask: Now consider COc1cccc(-c2cn(C3CCN(CC(N)=O)C3)c3ncnc(N)c23)c1 (configuration not stated) and answer again.
Result: 440

Ask: Now consider "COC(=O)CN1CCC(n2cc(-c3cccc(O)c3)c3c(N)ncnc32)CC1" and answer again.
Result: 800

Ask: Now consider "COc1cccc(-c2cn(C3CCN(CC(=O)N(C)C)CC3)c3ncnc(N)c23)c1" and answer again.
Result: 750

Ask: Now consider COc1cccc(-c2cn(C3CCNC3)c3ncnc(N)c23)c1 (configuration not stated) and answer again.
Result: 1120

====

# TEST_TARGET: Proto-oncogene tyrosine-protein kinase Src (Homo sapiens, UniProt P12931)
# Sequence (P12931 2-536 limits assumed): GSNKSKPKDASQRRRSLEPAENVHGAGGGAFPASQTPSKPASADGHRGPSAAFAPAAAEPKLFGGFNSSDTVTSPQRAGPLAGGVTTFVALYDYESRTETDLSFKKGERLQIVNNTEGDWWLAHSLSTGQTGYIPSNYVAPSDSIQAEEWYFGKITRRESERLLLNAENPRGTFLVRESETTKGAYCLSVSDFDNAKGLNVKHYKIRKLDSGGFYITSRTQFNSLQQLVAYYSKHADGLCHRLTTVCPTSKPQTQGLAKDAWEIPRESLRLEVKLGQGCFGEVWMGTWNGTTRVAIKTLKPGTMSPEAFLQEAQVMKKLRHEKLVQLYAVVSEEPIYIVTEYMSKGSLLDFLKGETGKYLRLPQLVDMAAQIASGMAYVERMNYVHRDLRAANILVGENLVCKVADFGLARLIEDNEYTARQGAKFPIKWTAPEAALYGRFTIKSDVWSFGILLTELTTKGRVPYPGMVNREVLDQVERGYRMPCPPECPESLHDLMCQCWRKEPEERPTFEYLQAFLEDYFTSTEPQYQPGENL
Below, each entry is listed alongside its reported pIC50.
// returns pIC50 (minus log10 of molar concentration), number only

Ask: Please look up its pIC50: "CCOC(=O)C[C@H]1C[C@@H](n2cc(-c3ccccc3)c3c(N)ncnc32)CN1"
Result: 7.82

Ask: Now consider COC(=O)CN1CCC(n2cc(-c3cccc(OC)c3)c3c(N)ncnc32)C1 (stereo not given) and answer again.
Result: 7.30

Ask: Now consider "NC(=O)CN1CCC(n2cc(-c3cccc(O)c3)c3c(N)ncnc32)CC1" and answer again.
Result: 9.00

Ask: Now consider "CCOC(=O)C[C@H]1C[C@H](n2cc(-c3ccc(O)cc3)c3c(N)ncnc32)CN1" and answer again.
Result: 7.00

Ask: Now consider "CCOC(=O)C[C@H]1C[C@@H](n2cc(-c3ccc(O)cc3)c3c(N)ncnc32)CN1" and answer again.
Result: 8.30

====

# TEST_TARGET: Proto-oncogene tyrosine-protein kinase Src (Gallus gallus, UniProt P00523)
# EXPERIMENT_DESCRIPTION: Concentration required for inhibition of c-Src mediated phosphorylation of Fak in IC8.1 fibroblast cell assay
QUANTITY_NAME: IC50 (nM)
// units = nM; emit number, no label

COCCN(C)CCN1CCC(n2cc(-c3cccc(OC)c3)c3c(N)ncnc32)CC1 :: 500

Ask: Please look up its IC50: "COc1cccc(-c2cn(C3CCN(CC(N)=O)CC3)c3ncnc(N)c23)c1"
Result: 700

Ask: Now consider Nc1ncnc2c1c(-c1cccc(O)c1)cn2C1CCNC1 (configuration not stated) and answer again.
Result: 800

====

# TEST_TARGET: UniProt:P00533
# EXPERIMENT_DESCRIPTION: Inhibition of epidermal growth factor receptor (EGF-R)
Below, each entry is listed alongside its reported pIC50.
// returns pIC50 (minus log10 of molar concentration), number only

Ask: Please look up its pIC50: "COCCN(C)CCN1CCC(n2cc(-c3cccc(OC)c3)c3c(N)ncnc32)CC1"
Result: 6.03

Ask: Now consider "COCCNCCN1CCC(n2cc(-c3cccc(OC)c3)c3c(N)ncnc32)CC1" and answer again.
Result: 6.51

====

# TEST_TARGET: Proto-oncogene tyrosine-protein kinase Src (Gallus gallus)
# EXPERIMENT_DESCRIPTION: Concentration required for inhibition of c-Src mediated phosphorylation of Fak in IC8.1 fibroblast cell assay
# Type: functional, cell-based
pIC50: −log10 of the molar value.
Quick rule: pIC50 of at least 6 means 1.0, below that means 0.0.

Record excerpt, results attached:
COc1cccc(-c2cn(C3CCNC3)c3ncnc(N)c23)c1 (stereo not given) :: 0.0
COc1cccc(-c2cn(C3CCN(CCN(C)CCO)CC3)c3ncnc(N)c23)c1 :: 1.0
COc1cccc(-c2cn(C3CCN(CC(=O)N(C)C)CC3)c3ncnc(N)c23)c1 :: 0.0
COCCNCCN1CCC(n2cc(-c3cccc(OC)c3)c3c(N)ncnc32)CC1 :: 1.0
COC(=O)CN1CCC(n2cc(-c3cccc(OC)c3)c3c(N)ncnc32)CC1 :: 0.0

Ask: Tell me whether pIC50 is at least 6 here: COc1cccc(-c2cn(C3CCN(C(=O)OC(C)(C)C)C3)c3ncnc(N)c23)c1 (stereo not given)
Result: 0.0

Ask: Now consider COc1cccc(-c2cn(C3CCN(CC(N)=O)C3)c3ncnc(N)c23)c1 (stereo not given) and answer again.
Result: 0.0

Ask: Now consider CC(C)(C)OC(=O)N1CCC(n2cc(-c3ccccc3)c3c(N)ncnc32)C1 (stereo not given) and answer again.
Result: 0.0

====

# TEST_TARGET: Tyrosine-protein kinase ABL (Homo sapiens, UniProt P00519+P42684)
Below, each entry is listed alongside its reported IC50.
// units = nM; emit number, no label

Examples with answers:
Nc1ncnc2c1c(-c1cccc(O)c1)cn2C1CCN(CCO)CC1 :: 98
COC(=O)CN1CCC(n2cc(-c3cccc(O)c3)c3c(N)ncnc32)C1 (stereo not drawn) :: 54
COc1cccc(-c2cn(C3CCN(CC(N)=O)C3)c3ncnc(N)c23)c1 (stereo not drawn) :: 700
CC(C)(C)OC(=O)N1CCC(n2cc(-c3cccc(O)c3)c3c(N)ncnc32)C1 (stereo not drawn) :: 58
COc1cccc(-c2cn(C3CCN(CC(N)=O)CC3)c3ncnc(N)c23)c1 :: 550

Ask: Please look up its IC50: "COC(=O)CN1CCC(n2cc(-c3cccc(O)c3)c3c(N)ncnc32)CC1"
Result: 56

Ask: Now consider NC(=O)CN1CCC(n2cc(-c3cccc(O)c3)c3c(N)ncnc32)C1 (stereo not drawn) and answer again.
Result: 150

Ask: Now consider "COC(=O)CN1CCC(n2cc(-c3cccc(OC)c3)c3c(N)ncnc32)CC1" and answer again.
Result: 1000

====

# TEST_TARGET: UniProt:P12931
# EXPERIMENT_DESCRIPTION: Inhibition of p60 c-Src tyrosine kinase enzyme activity in liquid-phase tyrosine phosphorylation assay at 830 ng/mL
Below, each entry is listed alongside its reported IC50.
// units = nM; emit number, no label

Examples with answers:
CC(C)(C)OC(=O)N1CCC(n2cc(-c3ccccc3)c3c(N)ncnc32)C1 (stereo not given) :: 180
CCOC(=O)C[C@H]1C[C@@H](n2cc(-c3ccc(O)cc3)c3c(N)ncnc32)CN1C(=O)OC(C)(C)C :: 300
Nc1ncnc2c1c(-c1ccc(O)cc1)cn2C1CN[C@@H](CO)C1 (single isomer, unassigned) :: 95
COc1cccc(-c2cn(C3CCN(CC(N)=O)CC3)c3ncnc(N)c23)c1 :: 22

Let us move to another entry and its IC50.
Ask: Please look up its IC50: COc1ccc(-c2cn(C3CCN(C(=O)OC(C)(C)C)C3)c3ncnc(N)c23)cc1 (stereo not given)
Result: 400

====

# TEST_TARGET: Proto-oncogene tyrosine-protein kinase Src (Gallus gallus, UniProt P00523)
# EXPERIMENT_DESCRIPTION: Concentration required for inhibition of c-Src mediated phosphorylation of Fak in IC8.1 fibroblast cell assay
pIC50: −log10 of the molar value.
Quick rule: pIC50 of at least 6 means fulfilled, below that means not fulfilled.

Record excerpt, results attached:
Nc1ncnc2c1c(-c1ccc(O)cc1)cn2[C@H]1CNC(CO)C1 (single isomer, unassigned) :: not fulfilled
COC(=O)CN1CCC(n2cc(-c3cccc(O)c3)c3c(N)ncnc32)CC1 :: fulfilled
COc1ccc(-c2cn(C3CCN(C(=O)OC(C)(C)C)C3)c3ncnc(N)c23)cc1 (centres undefined) :: fulfilled
Nc1ncnc2c1c(-c1cccc(O)c1)cn2C1CCN(CCO)CC1 :: fulfilled
CC(C)(C)OC(=O)N1C[C@@H](n2cc(-c3ccc(O)cc3)c3c(N)ncnc32)C[C@@H]1CO :: not fulfilled
Nc1ncnc2c1c(-c1ccc(O)cc1)cn2C1CN[C@@H](CO)C1 (single isomer, unassigned) :: not fulfilled

Ask: Tell me whether pIC50 is at least 6 here: COC(=O)CN1CCC(n2cc(-c3cccc(OC)c3)c3c(N)ncnc32)C1 (centres undefined)
Result: not fulfilled

Ask: Now consider "CCOC(=O)C[C@H]1C[C@@H](n2cc(-c3ccccc3)c3c(N)ncnc32)CN1" and answer again.
Result: not fulfilled

Ask: Now consider "CCOC(=O)C[C@H]1C[C@@H](n2cc(-c3ccc(O)cc3)c3c(N)ncnc32)CN1" and answer again.
Result: not fulfilled

Ask: Now consider CC(C)(C)OC(=O)N1CCC(n2cc(-c3cccc(O)c3)c3c(N)ncnc32)C1 (centres undefined) and answer again.
Result: not fulfilled

Ask: Now consider Nc1ncnc2c1c(-c1ccc(O)cc1)cn2C1CCNC1 (centres undefined) and answer again.
Result: not fulfilled

Ask: Now consider CC(C)(C)OC(=O)N1CCC(n2cc(-c3ccc(O)cc3)c3c(N)ncnc32)C1 (centres undefined) and answer again.
Result: fulfilled
